test: Cynomolgus monkey pharmacokinetics; type: in vivo; conditions: male, plasma, iv
readout-label: half-life (h)
Report as a plain number; the unit h is understood.

Completed entries (count: 2):
[
  {
    "molecule": "COc1nn([C@@H](Cc2ccccc2)C(=O)Nc2ccc(C(=O)O)cc2)c(=O)cc1-c1cc(Cl)ccc1C(C)=O [Example 19]",
    "readout-label": "half-life",
    "observed": 2.83
  },
  {
    "molecule": "COc1cn([C@@H](Cc2ccccc2)C(=O)Nc2ccc(C(=O)O)cc2)c(=O)cc1-c1cc(Cl)ccc1C(C)=O [Compound B, reference compound]",
    "readout-label": "half-life",
    "observed": 1.2
  }
]

--- query ---
Given the entry COCCOc1nn([C@@H](Cc2ccccc2)C(=O)Nc2ccc(C(=O)O)cc2)c(=O)cc1-c1cc(Cl)ccc1C(C)=O [Example 21] , report its measured half-life.
1.27

====

assay: Beagle dog pharmacokinetics; assay type: in vivo; settings: male, plasma, po, ig
readout-label: AUC (ng·h/mL)
Report as a plain number; the unit ng·h/mL is understood.

[
  {
    "query-smiles": "COc1nn([C@@H](Cc2ccccc2)C(=O)Nc2ccc(C(=O)O)cc2)c(=O)cc1-c1cc(Cl)ccc1C(C)=O",
    "AUC [ng·h/mL]": 9230
  }
]

Given the entry "CCC(=O)c1ccc(Cl)cc1-c1cc(=O)n([C@@H](Cc2ccccc2)C(=O)Nc2ccc(C(=O)O)cc2)nc1OC" , report its measured AUC.
3770

====

Target: CYP2C8 (Homo sapiens)
Sequence (P10632 1-490): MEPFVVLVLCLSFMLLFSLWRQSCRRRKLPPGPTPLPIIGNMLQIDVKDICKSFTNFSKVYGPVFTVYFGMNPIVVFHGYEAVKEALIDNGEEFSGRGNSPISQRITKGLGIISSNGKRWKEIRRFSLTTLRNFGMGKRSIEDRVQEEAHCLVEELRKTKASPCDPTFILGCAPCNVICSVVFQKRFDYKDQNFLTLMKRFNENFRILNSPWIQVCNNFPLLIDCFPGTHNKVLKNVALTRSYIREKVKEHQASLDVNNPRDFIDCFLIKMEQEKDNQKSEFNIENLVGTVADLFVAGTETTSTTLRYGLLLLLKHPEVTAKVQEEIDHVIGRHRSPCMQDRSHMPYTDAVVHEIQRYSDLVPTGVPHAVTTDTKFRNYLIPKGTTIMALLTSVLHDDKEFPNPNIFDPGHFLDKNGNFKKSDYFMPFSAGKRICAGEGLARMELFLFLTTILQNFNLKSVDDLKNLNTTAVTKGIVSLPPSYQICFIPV
readout-label: IC50

Given the entry "COc1nn([C@@H](Cc2ccccc2)C(=O)Nc2ccc(C(=O)O)cc2)c(=O)cc1-c1cc(Cl)ccc1C(C)=O" , report its measured IC50.
~50 µM

====

experiment: Rat pharmacokinetics; format: in vivo, SD rats; set-up: concentration or dose not given beside the values; settings: male, SD, plasma, po, ig
readout-label: log10 of AUC (log10 of the value in ng·h/mL)
All values: base-10 log of AUC in ng·h/mL.

Given the entry "CC(=O)c1ccc(Cl)cc1-c1cc(=O)n([C@@H](Cc2ccccc2)C(=O)Nc2ccc(C(=O)O)cc2)nc1OC(F)F" , report its measured log10 of AUC.
2.66

Given the entry "CCOc1nn([C@@H](Cc2ccccc2)C(=O)Nc2ccc(C(=O)O)cc2)c(=O)cc1-c1cc(Cl)ccc1C(C)=O" , report its measured log10 of AUC.
2.68

Given the entry "COc1nn([C@@H](Cc2ccccc2)C(=O)Nc2ccc(C(=O)O)cc2)c(=O)cc1-c1cc(Cl)ccc1C(C)=O" , report its measured log10 of AUC.
3.40

Given the entry "CCC(=O)c1ccc(Cl)cc1-c1cc(=O)n([C@@H](Cc2ccccc2)C(=O)Nc2ccc(C(=O)O)cc2)nc1OC" , report its measured log10 of AUC.
2.90

Given the entry "COCCOc1nn([C@@H](Cc2ccccc2)C(=O)Nc2ccc(C(=O)O)cc2)c(=O)cc1-c1cc(Cl)ccc1C(C)=O" , report its measured log10 of AUC.
2.78

Given the entry O=C(O)c1ccc(NC(=O)[C@H](Cc2ccccc2)n2cnc(-c3cc(Cl)ccc3-n3cc(Cl)nn3)cc2=O)cc1 [Compound A, reference compound] , report its measured log10 of AUC.
2.76

Given the entry "CC(=O)c1ccc(Cl)cc1-c1cc(=O)n([C@@H](Cc2ccccc2)C(=O)Nc2ccc(C(=O)O)cc2)nc1OC1COC1" , report its measured log10 of AUC.
1.97

====

experiment: Rat pharmacokinetics; format: in vivo, SD rats; conditions: male, SD, plasma, po, ig
Examples of compounds with documented Cmax follow.
Report as a plain number; the unit ng/mL is understood.

Completed entries (count: 5):
[
  {
    "compound": "CCOc1nn([C@@H](Cc2ccccc2)C(=O)Nc2ccc(C(=O)O)cc2)c(=O)cc1-c1cc(Cl)ccc1C(C)=O",
    "Cmax (ng/mL)": 160
  },
  {
    "compound": "COc1nn([C@@H](Cc2ccccc2)C(=O)Nc2ccc(C(=O)O)cc2)c(=O)cc1-c1cc(Cl)ccc1C(C)=O",
    "Cmax (ng/mL)": 768
  },
  {
    "compound": "CC(=O)c1ccc(Cl)cc1-c1cc(=O)n([C@@H](Cc2ccccc2)C(=O)Nc2ccc(C(=O)O)cc2)nc1OCCO",
    "Cmax (ng/mL)": 30.5
  },
  {
    "compound": "COCCOc1nn([C@@H](Cc2ccccc2)C(=O)Nc2ccc(C(=O)O)cc2)c(=O)cc1-c1cc(Cl)ccc1C(C)=O",
    "Cmax (ng/mL)": 166
  },
  {
    "compound": "CC(=O)c1ccc(Cl)cc1-c1cc(=O)n([C@@H](Cc2ccccc2)C(=O)Nc2ccc(C(=O)O)cc2)nc1OC(F)F",
    "Cmax (ng/mL)": 125
  }
]

--- query ---
Given the entry O=C(O)c1ccc(NC(=O)[C@H](Cc2ccccc2)n2cnc(-c3cc(Cl)ccc3-n3cc(Cl)nn3)cc2=O)cc1 [Compound A, reference compound] , report its measured Cmax.
180

====

pIC50 data for CYP2D6 (Homo sapiens, UniProt P10635) follow.
pIC50: −log10 of the molar value.

[
  {
    "query-smiles": "CCC(=O)c1ccc(Cl)cc1-c1cc(=O)n([C@@H](Cc2ccccc2)C(=O)Nc2ccc(C(=O)O)cc2)nc1OC",
    "pIC50": "< 4.30"
  }
]

--- query ---
Item "COc1nn([C@@H](Cc2ccccc2)C(=O)Nc2ccc(C(=O)O)cc2)c(=O)cc1-c1cc(Cl)ccc1C(C)=O" with CYP2D6 (Homo sapiens, UniProt P10635) - pIC50?
< 4.30

====

Examples of molecules with documented Papp B→A at 2 h follow.
assay: Caco-2 permeability; assay type: in vitro ADME; conditions: human; Caco-2 monolayer, 2h incubation
Report as a plain number; the unit ×10⁻⁶ cm/s is understood.

Completed entries (count: 2):
[
  {
    "molecule": "CCC(=O)c1ccc(Cl)cc1-c1cc(=O)n([C@@H](Cc2ccccc2)C(=O)Nc2ccc(C(=O)O)cc2)nc1OC [Example 32]",
    "Papp B→A at 2 h, ×10⁻⁶ cm/s": 21.9
  },
  {
    "molecule": "COc1cn([C@@H](Cc2ccccc2)C(=O)Nc2ccc(C(=O)O)cc2)c(=O)cc1-c1cc(Cl)ccc1C(C)=O [Compound B, reference compound]",
    "Papp B→A at 2 h, ×10⁻⁶ cm/s": 13.6
  }
]

Given the entry COc1nn([C@@H](Cc2ccccc2)C(=O)Nc2ccc(C(=O)O)cc2)c(=O)cc1-c1cc(Cl)ccc1C(C)=O [Example 19] , report its measured Papp B→A at 2 h.
25.1

====

experiment: Rat pharmacokinetics; type: in vivo, SD rats; settings: male, SD, plasma, iv
Examples of compounds with documented clearance follow.
Report as a plain number; the unit mL/min/kg is understood.

Completed entries (count: 8):
[
  {
    "compound": "CC(=O)c1ccc(Cl)cc1-c1cc(=O)n([C@@H](Cc2ccccc2)C(=O)Nc2ccc(C(=O)O)cc2)nc1OC1COC1",
    "measurement-unit": "mL/min/kg",
    "clearance": 36.5
  },
  {
    "compound": "CCC(=O)c1ccc(Cl)cc1-c1cc(=O)n([C@@H](Cc2ccccc2)C(=O)Nc2ccc(C(=O)O)cc2)nc1OC",
    "measurement-unit": "mL/min/kg",
    "clearance": 23.5
  },
  {
    "compound": "O=C(O)c1ccc(NC(=O)[C@H](Cc2ccccc2)n2cnc(-c3cc(Cl)ccc3-n3cc(Cl)nn3)cc2=O)cc1 [Compound A, reference compound]",
    "measurement-unit": "mL/min/kg",
    "clearance": 11.9
  },
  {
    "compound": "CCOc1nn([C@@H](Cc2ccccc2)C(=O)Nc2ccc(C(=O)O)cc2)c(=O)cc1-c1cc(Cl)ccc1C(C)=O",
    "measurement-unit": "mL/min/kg",
    "clearance": 16.6
  },
  {
    "compound": "COc1nn([C@@H](Cc2ccccc2)C(=O)Nc2ccc(C(=O)O)cc2)c(=O)cc1-c1cc(Cl)ccc1C(C)=O",
    "measurement-unit": "mL/min/kg",
    "clearance": 16.4
  },
  {
    "compound": "CC(=O)c1ccc(Cl)cc1-c1cc(=O)n([C@@H](Cc2ccccc2)C(=O)Nc2ccc(C(=O)O)cc2)nc1OCCO",
    "measurement-unit": "mL/min/kg",
    "clearance": 27.6
  },
  {
    "compound": "COc1nn([C@@H](Cc2ccccc2)C(=O)Nc2ccc3[nH]c(C(=O)O)cc3c2)c(=O)cc1-c1cc(Cl)ccc1C(C)=O",
    "measurement-unit": "mL/min/kg",
    "clearance": 29.1
  },
  {
    "compound": "COCCOc1nn([C@@H](Cc2ccccc2)C(=O)Nc2ccc(C(=O)O)cc2)c(=O)cc1-c1cc(Cl)ccc1C(C)=O",
    "measurement-unit": "mL/min/kg",
    "clearance": 25.3
  }
]

--- query ---
Given the entry "CC(=O)c1ccc(Cl)cc1-c1cc(=O)n([C@@H](Cc2ccccc2)C(=O)Nc2ccc(C(=O)O)cc2)nc1OC(F)F" , report its measured clearance.
22.6
